All figures here come from PubChem BioAssay (EPA / NIEHS).

# Read-out: UDP glucuronosyltransferase (UGT1A6), UGT1A6 (gene 54578)
# Experiment: LTEA_HepaRG_UGT1A6: Life Technologies and Expression Analysis (LTEA) Assay for UDP glucuronosyltransferase (UGT1A6) using HepaRG (AID 2283539)
# Measurement conditions: mRNA level, 48 h; actives raise or lower the signal
The source made the active and inactive calls. The calls were made as follows: active = hit-call score of the fitted dose curve at least 0.9, where 1 is the maximum; inactive = score below 0.9.
Classes used: active, inactive

{"columns": ["Compound", "Qualitative label"],
 "data": [
  ["O=C1CCCCCN1", "inactive"],
  ["CC(=O)OCCC(C)C", "inactive"],
  ["O=C(CCCCCCCCc1cccnc1)N1CCC(C=C(c2ccccc2)c2ccccc2)CC1", "active"],
  ["Fc1ccccc1[C@@H](F)COC1CCC(Nc2ncnc3[nH]ncc23)CC1 (stereo not given in full)", "active"],
  ["CNS(=O)(=O)c1cc(C(=O)N2CCC(CCN3C4CCC3CC(n3c(C)nc5ccccc53)C4)(c3cccc(F)c3)CC2)c(Cl)cc1F (stereo not given)", "active"],
  ["CN(C)c1ccc(Cc2ccc(N(C)C)cc2)cc1", "active"],
  ["O=C(O)c1cc(N=Nc2ccc(S(=O)(=O)Nc3ccccn3)cc2)ccc1O", "inactive"],
  ["CCOC(=O)CC(CC(=O)OCC)(OC(C)=O)C(=O)OCC", "inactive"],
  ["CCOC(=O)c1ccc(C2CCC(NC[C@H](O)COc3ccc(O)c(NS(C)(=O)=O)c3)CC2)cc1 (stereo not given in full)", "inactive"],
  ["CC(C)CCCCCCOC(=O)c1ccc(C(=O)OCCCCCCC(C)C)c(C(=O)OCCCCCCC(C)C)c1", "inactive"]
]}
